Tested on: A549
experiment: Growth inhibition of human A549 cells after 48 hrs by sulforhodamine B assay
Format: functional
run-conditions: A549, 48 h
readout-kind: GI50 (nM)

Example cases with answers are listed next.
{"columns": ["structure", "GI50 [nM]"],
 "data": [
  ["CCc1ccc(C=C(C(=O)/C=C/c2ccc(OC)c(OC)c2)C(=O)/C=C/c2ccc(OC)c(OC)c2)cc1", 630],
  ["COc1ccc(/C=C/C(=O)/C=C(O)/C=C/c2ccc(OC)c(OC)c2)cc1OC", 5800],
  ["COc1cc(/C=C/C(=O)C(=Cc2ccc(OC)c(OC)c2)C(=O)/C=C/c2ccc(O)c(OC)c2)ccc1O", 430]
]}

[I] COc1cc(/C=C/C(=O)C(=Cc2cccc(F)c2)C(=O)/C=C/c2ccc(O)c(OC)c2)ccc1O
[II] COc1cc(/C=C/C(=O)C(=Cc2ccc(F)cc2)C(=O)/C=C/c2ccc(O)c(OC)c2)ccc1O
[III] COc1cc(C=C(C(=O)/C=C/c2ccc(O)c(OC)c2)C(=O)/C=C/c2ccc(O)c(OC)c2)ccc1O
IN: # rank by GI50, ascending (min first) Put the labels in the requested order and write them down.
OUT: I, II, III

====

Test system: A549
experiment: Growth inhibition of human A549 cells after 48 hrs by sulforhodamine B assay
Assay type: functional
run-conditions: A549, 48 h
readout-kind: GI50 (nM)

Example cases with answers are listed next.
{"columns": ["structure", "readout-kind", "readout-value"],
 "data": [
  ["COc1ccc(/C=C/C(=O)C(=Cc2ccc(O)cc2)C(=O)/C=C/c2ccc(OC)c(OC)c2)cc1OC", "GI50", 420],
  ["COc1ccc(/C=C/C(=O)C(=Cc2ccc(F)cc2)C(=O)/C=C/c2ccc(OC)c(OC)c2)cc1OC", "GI50", 550],
  ["COc1ccc(OC)c(C=C(C(=O)/C=C/c2ccc(OC)c(OC)c2)C(=O)/C=C/c2ccc(OC)c(OC)c2)c1", "GI50", 530]
]}

[I] COc1cc(/C=C/C(=O)/C(=C/c2cc(OC)c(OC)c(OC)c2)C(C)=O)cc(OC)c1OC
[II] COc1ccc(C=C(C(=O)/C=C/c2cc(OC)c(OC)c(OC)c2)C(=O)/C=C/c2cc(OC)c(OC)c(OC)c2)cc1OC
IN: Could you check which of I and II has a smaller value for GI50? Respond with the label that goes with your answer.
OUT: II

====

assay-system: Inhibitor of NF-kappa-B kinase (IKK) (Homo sapiens, UniProt O14920+O15111+Q9Y6K9)
Sequence (O14920 whole entry): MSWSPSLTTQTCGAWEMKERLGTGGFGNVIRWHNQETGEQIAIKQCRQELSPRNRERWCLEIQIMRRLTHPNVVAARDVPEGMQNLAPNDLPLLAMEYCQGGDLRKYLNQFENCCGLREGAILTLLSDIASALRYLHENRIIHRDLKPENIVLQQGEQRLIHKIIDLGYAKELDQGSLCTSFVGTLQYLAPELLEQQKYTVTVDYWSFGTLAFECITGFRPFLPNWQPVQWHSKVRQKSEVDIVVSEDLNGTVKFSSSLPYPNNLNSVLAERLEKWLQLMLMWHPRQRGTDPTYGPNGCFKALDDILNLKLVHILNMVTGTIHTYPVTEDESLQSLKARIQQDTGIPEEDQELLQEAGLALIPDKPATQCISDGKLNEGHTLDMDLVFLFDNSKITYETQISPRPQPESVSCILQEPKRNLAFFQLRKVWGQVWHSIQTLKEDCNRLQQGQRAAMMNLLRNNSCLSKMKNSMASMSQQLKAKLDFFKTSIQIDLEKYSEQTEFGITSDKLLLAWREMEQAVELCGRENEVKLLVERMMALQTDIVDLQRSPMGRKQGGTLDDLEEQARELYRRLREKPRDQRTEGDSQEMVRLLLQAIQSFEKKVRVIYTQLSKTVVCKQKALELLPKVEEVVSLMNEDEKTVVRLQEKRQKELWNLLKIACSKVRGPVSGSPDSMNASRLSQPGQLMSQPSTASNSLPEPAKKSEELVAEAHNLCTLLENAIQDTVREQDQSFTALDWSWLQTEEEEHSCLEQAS
Sequence (O15111 whole entry): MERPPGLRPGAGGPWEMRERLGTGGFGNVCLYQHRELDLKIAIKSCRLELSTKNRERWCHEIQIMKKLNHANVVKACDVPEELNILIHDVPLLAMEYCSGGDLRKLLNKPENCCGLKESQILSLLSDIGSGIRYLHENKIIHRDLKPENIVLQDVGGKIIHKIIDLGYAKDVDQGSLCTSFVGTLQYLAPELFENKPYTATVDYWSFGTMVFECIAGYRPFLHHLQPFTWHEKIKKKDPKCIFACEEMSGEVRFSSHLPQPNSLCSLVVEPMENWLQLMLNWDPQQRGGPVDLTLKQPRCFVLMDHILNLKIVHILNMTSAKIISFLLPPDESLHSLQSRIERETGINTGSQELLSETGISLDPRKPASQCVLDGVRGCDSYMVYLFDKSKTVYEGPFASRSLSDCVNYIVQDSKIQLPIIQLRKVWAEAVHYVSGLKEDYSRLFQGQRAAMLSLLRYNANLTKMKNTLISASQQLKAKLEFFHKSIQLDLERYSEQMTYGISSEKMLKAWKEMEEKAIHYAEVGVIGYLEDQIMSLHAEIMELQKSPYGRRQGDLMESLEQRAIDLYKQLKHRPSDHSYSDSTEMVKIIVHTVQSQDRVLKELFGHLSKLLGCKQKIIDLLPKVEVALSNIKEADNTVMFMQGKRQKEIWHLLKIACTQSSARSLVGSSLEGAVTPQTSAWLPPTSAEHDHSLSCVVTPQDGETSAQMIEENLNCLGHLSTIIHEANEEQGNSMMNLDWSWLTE
Sequence (Q9Y6K9 whole entry): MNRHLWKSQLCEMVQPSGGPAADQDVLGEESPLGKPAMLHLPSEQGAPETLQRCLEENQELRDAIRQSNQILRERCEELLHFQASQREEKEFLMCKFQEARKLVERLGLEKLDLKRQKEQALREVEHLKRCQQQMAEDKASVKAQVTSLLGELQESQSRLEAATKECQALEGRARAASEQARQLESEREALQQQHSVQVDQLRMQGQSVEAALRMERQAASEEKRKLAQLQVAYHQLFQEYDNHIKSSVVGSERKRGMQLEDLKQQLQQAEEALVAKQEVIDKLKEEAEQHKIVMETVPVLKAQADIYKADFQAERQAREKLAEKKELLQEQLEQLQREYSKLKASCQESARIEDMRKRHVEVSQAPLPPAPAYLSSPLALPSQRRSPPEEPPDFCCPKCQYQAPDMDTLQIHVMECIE
experiment: Inhibition of IKK in human A549 cells assessed as inhibition of TNF-alpha-induced IkappaB phosphorylation preincubated for 30 mins before TNFalpha challenge
pIC50: −log10 of the molar value.
readout-kind: pIC50

{"columns": ["structure", "readout-value"],
 "data": [
  ["COc1ccc(/C=C/C(=O)C(=Cc2ccc(F)cc2)C(=O)/C=C/c2ccc(OC)c(OC)c2)cc1OC", 5.66]
]}

[P] COc1cc(C=C(C(=O)/C=C/c2ccc(OC)c(OC)c2)C(=O)/C=C/c2ccc(OC)c(OC)c2)ccc1O
[Q] COc1cc(/C=C/C(=O)C(=Cc2cccc(OC)c2OC)C(=O)/C=C/c2ccc(O)c(OC)c2)ccc1O
IN: Could you check which of P and Q has a smaller value for pIC50? Respond with the label that goes with your answer.
OUT: Q

====

Tested on: A549
experiment: Growth inhibition of human A549 cells after 48 hrs by sulforhodamine B assay
Format: functional
run-conditions: A549, 48 h
readout-kind: GI50 (nM)

{"columns": ["structure", "readout-units", "GI50"],
 "data": [
  ["COc1ccc(C=C(C(=O)/C=C/c2ccc(OC)c(OC)c2)C(=O)/C=C/c2ccc(OC)c(OC)c2)c(OC)c1", "nM", 650]
]}

[1] COc1ccc(/C=C/C(=O)C(=Cc2ccc(C)o2)C(=O)/C=C/c2ccc(OC)c(OC)c2)cc1OC
[2] COc1ccc(OC)c(C=C(C(=O)/C=C/c2ccc(O)c(OC)c2)C(=O)/C=C/c2ccc(O)c(OC)c2)c1
IN: Please tell me which of the two, 1 or 2 , has the higher reported GI50 value. Respond with the label that goes with your answer.
OUT: 1
(1: 1310 nM, 2: 670 nM)

====

Test system: A549
experiment: Growth inhibition of human A549 cells after 48 hrs by sulforhodamine B assay
Assay type: functional
run-conditions: A549, 48 h
readout-kind: GI50 (nM)

Example cases with answers are listed next.
{"columns": ["structure", "readout-kind", "readout-value"],
 "data": [
  ["COc1ccc(/C=C/C(=O)C(=Cc2cc(OC)c(OC)c(OC)c2)C(=O)/C=C/c2ccc(OC)cc2)cc1", "GI50", 1120],
  ["COc1cc(/C=C/C(=O)CC(=O)/C=C/c2ccc(O)c(OC)c2)ccc1O", "GI50", 15200],
  ["COc1cccc(C=C(C(=O)/C=C/c2ccc(O)c(OC)c2)C(=O)/C=C/c2ccc(O)c(OC)c2)c1", "GI50", 640]
]}

[A] COc1ccc(/C=C/C(=O)/C=C/c2cc(OC)c(OC)c(OC)c2)cc1OC
[B] COc1ccc(C=C(C(=O)/C=C/c2ccc(OC)c(OC)c2)C(=O)/C=C/c2ccc(OC)c(OC)c2)cc1OC
IN: Could you check which of A and B has a smaller value for GI50? Respond with the label that goes with your answer.
OUT: B

====

Test system: A549
experiment: Growth inhibition of human A549 cells after 48 hrs by sulforhodamine B assay
Format: functional
run-conditions: A549, 48 h
readout-kind: GI50 (nM)

{"columns": ["structure", "GI50 [nM]"],
 "data": [
  ["COc1cc(/C=C/C(=O)/C=C/c2cc(OC)c(OC)c(OC)c2)cc(OC)c1OC", 550],
  ["COc1cc(/C=C/C(=O)C(=Cc2cccc(OC)c2OC)C(=O)/C=C/c2ccc(O)c(OC)c2)ccc1O", 420]
]}

====

System: A549
experiment: Growth inhibition of human A549 cells after 48 hrs by sulforhodamine B assay
Type: functional
run-conditions: A549, 48 h
readout-kind: GI50

Example cases with answers are listed next.
{"columns": ["structure", "readout-value"],
 "data": [
  ["COc1cc(/C=C/C(=O)C(=CO)C(=O)/C=C/c2ccc(OC(C)=O)c(OC)c2)ccc1OC(C)=O", "> 25 µM"],
  ["COc1ccc(/C=C/C(=O)C(=CO)C(=O)/C=C/c2ccc(OC)c(OC)c2)cc1OC", "> 25 µM"]
]}

IN: Tell me the measured GI50 of O=C(/C=C(O)/C=C/c1ccco1)/C=C/c1ccco1 , please.
OUT: > 25 µM
